test system: PC-3 PIP/flu tumor-bearing mice; experiment: Biodistribution studies in PC-3 PIP/flu tumor-bearing mice; details: 192 h p.i.
measured-attribute: Kidneys (% IA/g)
Please reply with the bare figure in % IA/g and do not write the unit itself.

compound | measured-attribute | endpoint-result
O=C(O)CCC(NC(=O)NC(CCCCNC(=O)C(Cc1ccc2ccccc2c1)NC(=O)C1CCC(CNC(=O)C(CCCCNC(=O)CN2CCN(CC(=O)O)CCN(CC(=O)O)CCN(CC(=O)O)CC2)NC(=O)CCCCCCC(=O)NC(CCCCNC(=O)CCCc2ccc(I)cc2)C(=O)O)CC1)C(=O)O)C(=O)O (stereo not shown) [^177Lu-PSMA-ALB-04, metal not drawn] | Kidneys | 8.82
O=C(O)CCC(NC(=O)NC(CCCCNC(=O)C(Cc1ccc2ccccc2c1)NC(=O)C1CCC(CNC(=O)C(CCCCNC(=O)CCCc2ccc(I)cc2)NC(=O)CN2CCN(CC(=O)O)CCN(CC(=O)O)CCN(CC(=O)O)CC2)CC1)C(=O)O)C(=O)O (stereo not shown) [^177Lu-PSMA-ALB-03, metal not drawn] | Kidneys | 7.35

# input compound: O=C(O)CCC(NC(=O)NC(CCCCNC(=O)C(Cc1ccc2ccccc2c1)NC(=O)C1CCC(n2cc(CC(NC(=O)CN3CCN(CC(=O)O)CCN(CC(=O)O)CCN(CC(=O)O)CC3)C(=O)NC(CCCCNC(=O)CCCc3ccc(I)cc3)C(=O)O)nn2)CC1)C(=O)O)C(=O)O (stereo not shown) [^177Lu-PSMA-ALB-01, metal not drawn] ; wanted: its Kidneys
7.56

# input compound: O=C(O)CCC(NC(=O)NC(CCCCNC(=O)C(Cc1ccc2ccccc2c1)NC(=O)C1CCC(CNC(=O)C(CCCCNC(=O)CN2CCN(CC(=O)O)CCN(CC(=O)O)CCN(CC(=O)O)CC2)NC(=O)CC(NC(=O)CC(NC(=O)CCCc2ccc(I)cc2)C(=O)O)C(=O)O)CC1)C(=O)O)C(=O)O (stereo not shown) [^177Lu-PSMA-ALB-05, metal not drawn] ; wanted: its Kidneys
2.70
